Where do the numbers come from? From PubChem BioAssay (EPA / NIEHS).

Test: CCTE_Shafer_MEA_dev_spike_duration_mean: CCTE's Neural Network Formation Assay for Mean Spike Duration, Shafer Lab (AID 2284051);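 note: mean network spike duration pooled as area under curve over DIV 5 to 12 recordings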
Active and inactive are the calls of the source. Rule for the calls: active = hit-call score of the fitted dose curve at least 0.9, where 1 is the maximum; inactive = score below 0.9.
Write down the outcome that applies. Available outcomes: yes = active, no = inactive

1. COP(=S)(OC)Oc1ccc([N+](=O)[O-])cc1 | no
2. O=C(O)C(F)(F)C(F)(F)C(F)(F)C(F)(F)C(F)(F)C(F)(F)C(F)(F)F | no
3. Oc1cc(Cl)ccc1Oc1ccc(Cl)cc1Cl | yes
4. O=S1OCC2C(CO1)C1(Cl)C(Cl)=C(Cl)C2(Cl)C1(Cl)Cl (stereo not given) | yes

Now consider a different compound.
Task item: Give the logged outcome of this assay for the following compound: ClC1C(Cl)C(Cl)C(Cl)C(Cl)C1Cl (stereo not given)
Reply: no

====

Read-out: Thyroid Hormone Responsive (THRSP), THRSP (gene 7069)
Experiment: LTEA_HepaRG_THRSP: Life Technologies and Expression Analysis (LTEA) Assay for Thyroid Hormone Responsive (THRSP) using HepaRG (AID 2283536)
Settings: mRNA level, 48 h; actives raise or lower the signal
Activity calls are given as the source filed them. The calls were made as follows: active = hit-call score of the fitted dose curve at least 0.9, where 1 is the maximum; inactive = score below 0.9.
Write down the outcome that applies. Available outcomes: TRUE (active), FALSE (inactive)

Study these solved cases before continuing.
1. ClC1C(Cl)C(Cl)C(Cl)C(Cl)C1Cl (stereo not drawn) | FALSE
2. O=C1c2ccccc2C(=O)N1SC(Cl)(Cl)Cl | FALSE
3. O=C(O)COc1ccc(Cl)cc1Cl | FALSE
4. CCc1ccc(C(=O)NN(C(=O)c2cc(C)cc(C)c2)C(C)(C)C)cc1 | TRUE
5. CCCN(CCOc1c(Cl)cc(Cl)cc1Cl)C(=O)n1ccnc1 | TRUE
6. O=S1OCC2C(CO1)C1(Cl)C(Cl)=C(Cl)C2(Cl)C1(Cl)Cl (stereo not drawn) | TRUE
7. CC(C)OC(=O)Nc1cccc(Cl)c1 | FALSE
8. C[C@H]1[C@H](c2ccc(Cl)cc2)SC(=O)N1C(=O)NC1CCCCC1 | TRUE
9. CNC(=O)/C=C(\C)OP(=O)(OC)OC | FALSE
10. N#CN | FALSE

Task item: Short answer needed: outcome of this test for Clc1ccccc1-c1nnc(-c2ccccc2Cl)nn1 ?
Reply: TRUE

Task item: What classification did CCCN(CCC)c1c([N+](=O)[O-])cc(C(F)(F)F)cc1[N+](=O)[O-] end up with in this test?
Reply: FALSE

Task item: Please indicate how the test categorized CCN(CC)C(=O)SCc1ccc(Cl)cc1 .
Reply: FALSE

====

Read-out: Cytochrome P450 2B6 (Homo sapiens) (UniProt P20813)
Assay: CLD_CYP2B6_48hr: CellzDirect (CLD) Gene Expression Assay for xenobiotic metabolism (CYP2B6) at 48 hours (AID 2283699);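 note: actives raise transcript level above DMSO so potency reflects induction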
Records with an inconclusive call do not appear. Active and inactive are the calls of the source. Rule for the calls: active = hit-call score of the fitted dose curve at least 0.9, where 1 is the maximum; inconclusive = response in the unintended direction; inactive = score below 0.9.
Valid outcomes are listed here; reply with one: true (active), false (inactive)

1. CCC(C)Nc1c([N+](=O)[O-])cc(C(C)(C)C)cc1[N+](=O)[O-] (stereo unspecified) | true
2. O=S1OCC2C(CO1)C1(Cl)C(Cl)=C(Cl)C2(Cl)C1(Cl)Cl (stereo unspecified) | true
3. O=C(O)CCCOc1ccc(Cl)cc1Cl | false
4. COc1cc(OC)nc(NC(=O)NS(=O)(=O)c2cc(NC=O)ccc2C(=O)N(C)C)n1 | false

Task item: Please share the test call associated with CCCN(CCOc1c(Cl)cc(Cl)cc1Cl)C(=O)n1ccnc1 .
Reply: true

Task item: GET /call?item= CC(C)(C)C(O)C(Oc1ccc(Cl)cc1)n1cncn1 (stereo unspecified) returns the recorded outcome of this test.
Reply: true

Task item: Record request — test call for CC(C)(C)C(O)/C(=C\c1ccc(Cl)cc1Cl)n1cncn1 (stereo unspecified)
Reply: true

Task item: Lab log entry: COC(=O)c1ccccc1CS(=O)(=O)NC(=O)Nc1nc(OC)cc(OC)n1 — outcome as called in the assay?
Reply: false

Task item: How did this test come out for CCOc1nc(NC)nc(NC(=O)NS(=O)(=O)c2ccccc2C(=O)OC)n1 ?
Reply: false

Task item: Test call, this compound: COP(=S)(OC)Oc1ccc(SC)c(C)c1
Reply: true

Task item: What was the test verdict on Cc1[nH]c(=O)n(C(C)(C)C)c(=O)c1Cl ?
Reply: true
